- Tested on: A549
- PROTOCOL_DESCRIPTION: Euclidean distance of Cell Painting phenotypic profile (signed KS, 77 features) to DMSO centroid (dimensionless distance); 5 or 10 uM (library dependent); higher = stronger phenotypic change vs DMSO (phenoactivity)
- PROTOCOL_CONDITIONS: 48 h
Where a name gives a salt, the structure may show the parent alone.
Here the recorded Euclidean distance is given for each entry.

* Cc1c(O)cccc1C(=O)N[C@@H](CSc1ccccc1)[C@H](O)CN1C[C@H]2CCCC[C@H]2C[C@H]1C(=O)NC(C)(C)C [Nelfinavir Mesylate] | 2.45

Name the recorded Euclidean distance of the compound listed here: `O=C(O)c1ccccc1O`
0.32

Return Euclidean distance (reported value) for this compound: `CS(=O)(=O)CCC#N`
0.857

Recall and state the measured Euclidean distance for Cc1c(C(N)=O)cc([N+](=O)[O-])cc1[N+](=O)[O-] [Dinitolmide] .
1.4

Give the reported value of Euclidean distance for this record: `CC/C=C\C/C=C\C/C=C\C/C=C\C/C=C\CCCC(=O)O`
1.07

Provide only the value of recorded Euclidean distance for CC(=O)Nc1nnc(S(N)(=O)=O)s1 [Acetazolamide]
0.669

###

- Test system: A549
- PROTOCOL_DESCRIPTION: Euclidean distance of Cell Painting phenotypic profile (signed KS, 77 features) to DMSO centroid (dimensionless distance); 5 or 10 uM (library dependent); higher = stronger phenotypic change vs DMSO (phenoactivity)
- PROTOCOL_CONDITIONS: 48 h
Quick rule: Euclidean distance of at least 2 means Condition met, below that means Condition not met.

Recorded results for 4 compounds are shown here.
- O=c1c(-c2ccc(O)cc2)coc2cc(O)cc(O)c12 [Genistein]: Condition not met
- CC(=O)OC(C)OC(=O)C(C)c1ccc(-c2ccccc2)c(F)c1 (stereo not given) [Flurbiprofen Axetil]: Condition not met
- CCN1CCN(C(=O)N[C@@H](C(=O)N[C@@H]2C(=O)N3[C@@H]2SC(C)(C)[C@@H]3C(=O)O)c2ccccc2)C(=O)C1=O [Piperacillin Sodium]: Condition not met
- COc1cc2ncnc(Nc3ccc(F)c(Cl)c3)c2cc1OCCCN1CCOCC1 [Gefitinib (ZD1839)]: Condition met

For this compound, is measured Euclidean distance 2 or higher? `S=C(N/N=C1/CCCc2cccnc21)N1CCN(c2ccccn2)CC1`
Condition met

###

- Test system: FB
- PROTOCOL_DESCRIPTION: Euclidean distance of Cell Painting phenotypic profile (signed KS, 77 features) to DMSO centroid (dimensionless distance); 5 or 10 uM (library dependent); higher = stronger phenotypic change vs DMSO (phenoactivity)
- PROTOCOL_CONDITIONS: 48 h
Structures can show the parent of a compound that is named as a salt.
Consider the following compounds and their measured Euclidean distance readings.
Respond numerically, and do not add a unit to the figure.

Here is how some compounds turned out for Euclidean distance.
- C#C[C@]1(O)CC[C@H]2[C@@H]3CCc4cc(O)ccc4[C@H]3CC[C@@]21C: 1.09
- CC1(C)[C@@H](O[C@H]2O[C@H](C(=O)O)[C@@H](O)[C@H](O)[C@H]2O[C@@H]2O[C@H](C(=O)O)[C@@H](O)[C@H](O)[C@H]2O)CC[C@]2(C)[C@H]3C(=O)C=C4[C@@H]5C[C@@](C)(C(=O)O)CC[C@]5(C)CC[C@@]4(C)[C@]3(C)CC[C@@H]12 [Glycyrrhizin (Glycyrrhizic Acid)]: 1.38
- Clc1ccc(CCC(Cn2ccnc2)Sc2c(Cl)cccc2Cl)cc1 (stereo not drawn): 1.04
- CC[C@]1(O)C[C@H]2CN(CCc3c([nH]c4ccccc34)[C@@](C(=O)OC)(c3cc4c(cc3OC)N(C=O)[C@H]3[C@@](O)(C(=O)OC)[C@H](OC(C)=O)[C@]5(CC)C=CCN6CC[C@]43[C@@H]65)C2)C1: 3.47
- COc1cc2nc(N3CCCN(C)CC3)nc(NC3CCN(Cc4ccccc4)CC3)c2cc1OC: 4.73
- O=C(O)COCCN1CCN([C@H](c2ccccc2)c2ccc(Cl)cc2)CC1 [Levocetirizine Dihydrochloride]: 1.09

Report measured Euclidean distance; entry is CCCNC(=O)NS(=O)(=O)c1ccc(Cl)cc1 [Chlorpropamide]
0.968

Write down Euclidean distance measured for item `C=CCc1ccc(O)c(-c2ccc(O)c(CC=C)c2)c1`
1.46

Tell me measured Euclidean distance for `CC[C@H]1OC(=O)[C@H](C)[C@@H](O[C@H]2C[C@@](C)(OC)[C@@H](O)[C@H](C)O2)[C@H](C)[C@@H](O[C@@H]2O[C@H](C)C[C@H](N(C)C)[C@H]2O)[C@](C)(O)C[C@@H](C)[C@@H]2N[C@@H](COCCOC)O[C@H]([C@H]2C)[C@]1(C)O` please.
1.06

Respond only with Euclidean distance recorded for CN(CCOc1ccc(NS(C)(=O)=O)cc1)CCc1ccc(NS(C)(=O)=O)cc1 [Dofetilide]
1.24

Let me know recorded Euclidean distance for C[n+]1ccccc1/C=N/O [Pralidoxime chloride] , thanks.
1.2

Give recorded Euclidean distance. Cc1cc(N2CCN([C@@H]3CN[C@H](C(=O)N4CCSC4)C3)CC2)n(-c2ccccc2)n1 [Teneligliptin hydrobromide]
1.2

Let me know recorded Euclidean distance for `O=C(/C=C/c1ccc(O)c(O)c1)c1ccc(O)cc1O` , thanks.
1.51

###

Recorded measurements of Euclidean distance, one per entry
- Test system: FB
- PROTOCOL_DESCRIPTION: Euclidean distance of Cell Painting phenotypic profile (signed KS, 77 features) to DMSO centroid (dimensionless distance); 5 or 10 uM (library dependent); higher = stronger phenotypic change vs DMSO (phenoactivity)
- PROTOCOL_CONDITIONS: 48 h
Structures can show the parent of a compound that is named as a salt.
// keep it numeric: no unit symbol after the value

Field: example entries. Status: answers known.
- CC(C)(C(=O)c1cccnc1)c1cccnc1: 1.36
- CN(C)[C@@H]1C(O)=C(C(N)=O)C(=O)[C@@]2(O)C(O)=C3C(=O)c4c(O)ccc(Cl)c4[C@@H](O)[C@H]3C[C@@H]12 [Demeclocycline HCl]: 1.05
- O=C([O-])c1ccccc1O.[Na+] [Sodium salicylate]: 0.714
- CS(=O)(=O)CCNCc1ccc(-c2ccc3ncnc(Nc4ccc(OCc5cccc(F)c5)c(Cl)c4)c3c2)o1 [Lapatinib]: 2.22
- CC(C)(C)C(=O)OCOP(=O)(COCCn1cnc2c(N)ncnc21)OCOC(=O)C(C)(C)C: 2.73
- CC[C@@H](CO)NCCN[C@@H](CC)CO [Ethambutol HCl]: 0.916
- CC1Oc2cc(cnc2N)-c2c(nn(C)c2C#N)CN(C)C(=O)c2ccc(F)cc21 (stereo not drawn): 1.55
- COc1ccc(-c2cc(=O)c3c(O)c(OC)c(O)cc3o2)cc1OC: 1.51
- CCC(=O)O[C@@H](O[P@](=O)(CCCCc1ccccc1)CC(=O)N1C[C@H](C2CCCCC2)C[C@H]1C(=O)O)C(C)C [Fosinopril Sodium]: 0.746
- Cc1cccc(-c2[nH]c(CNc3ccccc3F)nc2-c2ccc3ncnn3c2)n1: 1.83

Check the records and state Euclidean distance for CN(C)CCC=C1c2ccccc2COc2ccccc21 [Doxepin HCl]
1.45

Assign Euclidean distance to the following record: `CCN(CC)CCNC(=O)c1c(C)[nH]c(/C=C2\C(=O)Nc3ccc(-c4csc(-c5ccccc5)n4)cc32)c1C`
5.61

Please list Euclidean distance recorded for the molecule `C[C@H](CCC(=O)NCCS(=O)(=O)O)[C@H]1CC[C@H]2[C@@H]3[C@@H](O)C[C@@H]4C[C@H](O)CC[C@]4(C)[C@H]3CC[C@]12C`
1.04

Identify Euclidean distance associated with the molecule C[C@@H](O)[C@H]1C(=O)N2C(C(=O)O)=C(S[C@@H]3CN[C@H](C(=O)N(C)C)C3)[C@H](C)[C@H]12 [Meropenem Trihydrate]
0.87

###

- Tested on: OVCAR4
- PROTOCOL_DESCRIPTION: Euclidean distance of Cell Painting phenotypic profile (signed KS, 77 features) to DMSO centroid (dimensionless distance); 5 or 10 uM (library dependent); higher = stronger phenotypic change vs DMSO (phenoactivity)
- PROTOCOL_CONDITIONS: 48 h
Structures can show the parent of a compound that is named as a salt.
Parameter threshold = 1. Response is label 1 when Euclidean distance meets or exceeds it, else label 0.

Some solved cases for reference:
• CNC(=C[N+](=O)[O-])NCCSCc1csc(CN(C)C)n1 = label 1
• OCC1=C[C@@H](O)[C@@H]2C=CO[C@@H](O[C@@H]3O[C@H](CO)[C@@H](O)[C@H](O)[C@H]3O)[C@H]12 = label 1
• CCCOC(C(=O)OC1CCN(C)CC1)(c1ccccc1)c1ccccc1 [Propiverine hydrochloride] = label 1

Identify whether the reported Euclidean distance of the following compound is 1 or greater: `CNC(=O)c1ccc(N2C(=S)N(c3cnc(C#N)c(C(F)(F)F)c3)C(=O)C23CCC3)cc1F`
label 1

# bool: Euclidean distance of CNC(=O)c1cc(Oc2ccc(NC(=O)Nc3cc(C(C)(C)C)nn3-c3ccc4ncccc4c3)c(F)c2)ccn1 [DCC-2036 (Rebastinib)] >= 1
label 1

Test whether the compound CC(C)CCCCC(=O)N[C@@H](CCN)C(=O)N[C@H](C(=O)N[C@@H](CCN)C(=O)N[C@H]1CCNC(=O)[C@H]([C@@H](C)O)NC(=O)[C@H](CCN)NC(=O)[C@H](CCN)NC(=O)[C@H](CC(C)C)NC(=O)[C@@H](Cc2ccccc2)NC(=O)[C@H](CCN)NC1=O)[C@@H](C)O [Polymyxin B sulphate] records Euclidean distance of 1 or higher.
label 0

# bool: Euclidean distance of `CO[C@H]1C[C@@H]2CC[C@@H](C)[C@@](O)(O2)C(=O)C(=O)N2CCCC[C@H]2C(=O)O[C@H]([C@H](C)C[C@@H]2CC[C@@H](OC(=O)C(C)(CO)CO)[C@H](OC)C2)CC(=O)[C@H](C)/C=C(\C)[C@@H](O)[C@@H](OC)C(=O)[C@H](C)C[C@H](C)/C=C/C=C/C=C/1C` >= 1
label 1

Could you please find out whether COc1ccc2cc3[n+](cc2c1OC)CCc1cc2c(cc1-3)OCO2 [Berberine Sulfate] has Euclidean distance that meets 1 or exceeds it?
label 1

Does Euclidean distance meet or surpass 1 for COc1cc(C(=O)NCc2ccc(OCCN(C)C)cc2)cc(OC)c1OC [Tribenzagan Hydrochloride] ?
label 1

Could you verify whether the entry CC[C@H]1OC(=O)[C@H](C)[C@@H](O[C@H]2C[C@@](C)(OC)[C@@H](O)[C@H](C)O2)[C@H](C)[C@@H](O[C@@H]2O[C@H](C)C[C@H](N(C)C)[C@H]2O)[C@](C)(O)C[C@@H](C)CN(C)[C@H](C)[C@@H](O)[C@]1(C)O [Azithromycin Dihydrate] shows Euclidean distance of no less than 1?
label 1

Test whether the compound CC(NCCC(c1ccccc1)c1ccccc1)c1ccccc1 (configuration not stated) [Fendiline hydrochloride] records Euclidean distance of 1 or higher.
label 1

Is it the case that c1ccc([C@H]2CN3CCSC3=N2)cc1 [Levamisole hydrochloride] has Euclidean distance reaching or exceeding 1?
label 1

Could you verify whether the entry CO/N=C(\C(=O)N[C@@H]1C(=O)N2C(C(=O)O)=C(CSc3nnnn3C)CS[C@H]12)c1csc(N)n1 [Cefmenoxime hydrochloride] shows Euclidean distance of no less than 1?
label 0

hey, is Euclidean distance for this one >= 1? `Cc1ccc(NC(=O)c2cccc(C(C)(C)C#N)c2)cc1Nc1ccc2ncn(C)c(=O)c2c1`
label 0

Confirm if Euclidean distance reported for the compound CC(C)c1nc(CN(C)C(=O)N[C@@H](CCN2CCOCC2)C(=O)N[C@H](CC[C@H](Cc2ccccc2)NC(=O)OCc2cncs2)Cc2ccccc2)cs1 [Cobicistat (GS-9350)] is 1 or above.
label 1

Determine whether this compound has Euclidean distance no lower than 1: `Cc1ccc(-n2sc(=O)n(Cc3ccc(F)cc3)c2=O)cc1`
label 1

Record Clc1ccc(C(Cn2ccnc2)OCc2ccc(Sc3ccccc3)cc2)c(Cl)c1 (configuration not stated) [Fenticonazole Nitrate] ; criterion: Euclidean distance no lower than 1. Met?
label 1

Hi team, for `N=C1CCCN1Cc1[nH]c(=O)[nH]c(=O)c1Cl.O=c1[nH]c(=O)n([C@H]2C[C@H](O)[C@@H](CO)O2)cc1C(F)(F)F` , is the recorded Euclidean distance at or above 1?
label 1

Is Euclidean distance for O=C(Nc1cccc2cccnc12)c1ccc(N2C(=O)[C@@H]3[C@H](C2=O)[C@@H]2C=C[C@H]3C2)cc1 [IWR-1-endo] at or above 1?
label 1

Given the entry `O=c1c(-c2ccc(O)cc2)coc2c([C@@H]3O[C@H](CO)[C@@H](O)[C@H](O)[C@H]3O)c(O)ccc12` , answer whether its Euclidean distance meets or surpasses 1.
label 1

Please indicate if the recorded Euclidean distance for CN1CCN(C2=Nc3ccccc3Oc3ccc(Cl)cc32)CC1 [Loxapine Succinate] meets or exceeds 1.
label 0

Data credit: the supplement of paper PMC10127200
